Value source: patent US20150086555A1

Recorded log10 Trimeric HA Binding: RLU values for a group of binders are listed next.
- target_entity: recombinant soluble homotrimeric HA, A/chicken/Vietnam/NCVD-016/08 H5N1 (Influenza A virus A/chicken/Vietnam/NCVD-016/2008(H5N1))
- method: microarray, transfection SN IgG, trimeric HA
- condition_description: remark: other sources report otherwise
Hi team, quick reminder: these entries are log10 of Trimeric HA Binding: RLU (RLU).

>  <binder>
TCN-557 (5081_A04) (antibody, V domains shown) VH: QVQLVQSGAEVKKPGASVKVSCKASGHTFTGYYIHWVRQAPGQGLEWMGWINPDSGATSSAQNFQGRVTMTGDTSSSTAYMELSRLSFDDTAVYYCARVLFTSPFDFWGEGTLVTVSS VL: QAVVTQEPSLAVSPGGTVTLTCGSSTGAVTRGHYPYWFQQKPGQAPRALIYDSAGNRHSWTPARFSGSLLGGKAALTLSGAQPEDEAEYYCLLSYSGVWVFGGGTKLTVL

>  <recorded_result>
4.37

$$$$
>  <binder>
TCN-555 (5246_L16) (antibody, V domains shown) VH: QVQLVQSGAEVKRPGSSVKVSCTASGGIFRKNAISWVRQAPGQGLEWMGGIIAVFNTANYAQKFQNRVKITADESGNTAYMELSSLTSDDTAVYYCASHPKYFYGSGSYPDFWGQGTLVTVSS VL: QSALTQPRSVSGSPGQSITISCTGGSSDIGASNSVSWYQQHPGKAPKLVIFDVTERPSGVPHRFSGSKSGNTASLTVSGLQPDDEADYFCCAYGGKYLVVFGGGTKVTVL

>  <recorded_result>
4.55

$$$$
>  <binder>
TCN-553 (5261_C18) (antibody, V domains shown) VH: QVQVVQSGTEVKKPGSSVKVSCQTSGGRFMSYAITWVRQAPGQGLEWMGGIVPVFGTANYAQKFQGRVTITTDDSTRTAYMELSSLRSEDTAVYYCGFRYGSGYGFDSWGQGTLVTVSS VL: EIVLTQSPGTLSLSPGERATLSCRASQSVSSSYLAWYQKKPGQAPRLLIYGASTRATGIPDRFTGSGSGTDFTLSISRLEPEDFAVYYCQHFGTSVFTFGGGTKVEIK

>  <recorded_result>
4.54

$$$$

## Task Would you kindly share the measured log10 Trimeric HA Binding: RLU for TCN-547 (5092_F11) (antibody, V domains shown) VH: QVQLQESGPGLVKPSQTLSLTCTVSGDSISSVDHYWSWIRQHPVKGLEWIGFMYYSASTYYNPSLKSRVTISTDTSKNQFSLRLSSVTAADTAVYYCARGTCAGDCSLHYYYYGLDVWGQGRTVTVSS VL: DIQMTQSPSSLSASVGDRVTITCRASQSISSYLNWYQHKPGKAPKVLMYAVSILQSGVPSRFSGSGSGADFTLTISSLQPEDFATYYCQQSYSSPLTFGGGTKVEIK ?
## Result 3.12

## Task # query: log10 Trimeric HA Binding: RLU of entry TCN-552 (5249_I23) (antibody, V domains shown) VH: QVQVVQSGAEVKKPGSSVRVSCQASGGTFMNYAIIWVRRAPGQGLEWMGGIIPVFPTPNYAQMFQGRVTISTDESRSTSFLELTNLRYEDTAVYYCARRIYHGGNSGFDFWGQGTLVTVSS VL: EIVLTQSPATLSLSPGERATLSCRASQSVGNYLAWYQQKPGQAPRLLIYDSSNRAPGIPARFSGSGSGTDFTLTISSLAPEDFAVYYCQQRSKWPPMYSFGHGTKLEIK
## Result 4.54

## Task Query: log10 Trimeric HA Binding: RLU; subject: TCN-550 (5096_F06) (antibody, V domains shown) VH: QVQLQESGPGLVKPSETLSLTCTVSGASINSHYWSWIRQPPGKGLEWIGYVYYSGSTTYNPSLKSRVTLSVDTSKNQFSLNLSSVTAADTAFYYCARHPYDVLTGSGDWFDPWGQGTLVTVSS VL: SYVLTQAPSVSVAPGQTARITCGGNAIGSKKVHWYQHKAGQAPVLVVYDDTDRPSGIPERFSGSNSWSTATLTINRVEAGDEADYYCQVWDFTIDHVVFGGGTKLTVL
## Result 3.26

## Task log10 Trimeric HA Binding: RLU for TCN-558 (5248_H10b) (antibody, V domains shown) VH: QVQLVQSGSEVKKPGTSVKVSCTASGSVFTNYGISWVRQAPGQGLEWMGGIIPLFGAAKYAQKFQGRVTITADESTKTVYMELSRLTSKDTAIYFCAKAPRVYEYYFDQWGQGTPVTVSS VL: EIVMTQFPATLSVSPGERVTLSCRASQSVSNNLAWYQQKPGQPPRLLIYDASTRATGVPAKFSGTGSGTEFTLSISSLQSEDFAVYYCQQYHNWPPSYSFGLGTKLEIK ?
## Result 4.52
